# collection of IC50 values tested on human MMP-2 (Homo sapiens, UniProt P08253)
# Sequence (P08253 110-660): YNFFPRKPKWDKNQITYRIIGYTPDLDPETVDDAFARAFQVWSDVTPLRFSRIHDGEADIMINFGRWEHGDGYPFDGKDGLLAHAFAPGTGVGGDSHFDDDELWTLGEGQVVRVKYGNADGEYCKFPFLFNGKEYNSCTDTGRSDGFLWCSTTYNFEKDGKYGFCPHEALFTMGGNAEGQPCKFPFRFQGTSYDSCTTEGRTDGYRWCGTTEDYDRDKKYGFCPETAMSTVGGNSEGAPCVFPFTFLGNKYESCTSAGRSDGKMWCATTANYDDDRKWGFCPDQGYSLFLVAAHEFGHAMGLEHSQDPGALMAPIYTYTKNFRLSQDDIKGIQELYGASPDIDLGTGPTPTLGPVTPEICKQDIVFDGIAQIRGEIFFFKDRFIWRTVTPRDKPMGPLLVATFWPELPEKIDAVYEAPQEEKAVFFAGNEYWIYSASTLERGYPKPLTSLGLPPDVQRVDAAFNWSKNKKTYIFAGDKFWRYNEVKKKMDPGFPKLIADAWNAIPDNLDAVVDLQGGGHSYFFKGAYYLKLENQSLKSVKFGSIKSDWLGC
Report the value in nM with no unit label.

Below are worked cases with known answers.
- compound: "CNC(=O)[C@H](CCc1ccccc1)NC(=O)[C@H](CC(=O)NO)CC(C)C"
  system: "human MMP-2 (Homo sapiens, UniProt P08253)"
  measuredValue: 2100
- compound: "CNC(=O)[C@@H](NC(=O)[C@H](CC(=O)NO)CC(C)C)C(C)(C)C"
  system: "human MMP-2 (Homo sapiens, UniProt P08253)"
  measuredValue: 2700
- compound: "CC(C)C[C@@H](C(=O)N[C@H](C(=O)N(C)C)C(C)(C)C)[C@H](O)C(=O)NO"
  system: "human MMP-2 (Homo sapiens, UniProt P08253)"
  measuredValue: 7.7
- compound: "CNC(=O)C(CCc1ccccc1)NC(=O)C(CC(=O)NO)CC(C)C (stereo not drawn)"
  system: "human MMP-2 (Homo sapiens, UniProt P08253)"
  measuredValue: 1.1
- compound: "CC(C)C[C@@H](C(=O)N[C@H](C(=O)Nc1ccccn1)C(C)(C)C)[C@H](O)C(=O)NO"
  system: "human MMP-2 (Homo sapiens, UniProt P08253)"
  measuredValue: 1.8

Query :: Request: IC50, test system human MMP-2 (Homo sapiens, UniProt P08253), entry "CO[C@H](C(=O)NO)[C@@H](CC(C)C)C(=O)N[C@H](C(=O)Nc1ccccn1)C(C)(C)C"
Result :: 3.2

====

- system: purified aureolysin type II (Staphylococcus aureus, UniProt P81177)
- assayOverview: Aureolysin enzyme inhibition assay, type II
- Format: biochemical
- runParameters: pH 6.8, 37° C., 1 hour; read-out: IC50 value Aureolysin type II
Recorded measurements of pIC50, one per entry
By convention, pIC50 is the negative base-10 log of a molar concentration.

Below are worked cases with known answers.
- compoundStructure: "CNC(=O)[C@H](Cc1c[nH]c2ccccc12)NC(=O)[C@@H](CC(=O)NO)CC(C)C"
  pIC50: 6.37
- compoundStructure: "CC(C)C[C@@H](C(=O)N[C@H](C(=O)Nc1ccccn1)C(C)(C)C)[C@H](O)C(=O)NO"
  pIC50: 5.62

Query :: Entry "CC(C)C[C@H](NP(=O)(O)O[C@@H]1O[C@@H](C)[C@H](O)[C@@H](O)[C@H]1O)C(=O)N[C@@H](Cc1c[nH]c2ccccc12)C(=O)O" : reported pIC50 = ?
Result :: 5.64
